test: purified protein yield per well (BCA); higher = higher soluble expression
Quick reference: purified protein yield per well of the listed items.

Lab note: ATTSYQRGPNPTEQSVRAANGPFAYSQFAIPDAEATGFGEGTIYYPNNTSVGTFGGVVIAPGFNADQNSTVWLGKRLASHGFVAVTITTHELNDQPYERGKQILAALDYLTGQSPAFVRSRLDPARLAAVGHSMGGGGTLFAAAQRPSLKAIVPLAPWALAKNWSNVQVPTMILSGAQDASAPPAEHAEKFYASLTSAPEKAYAKLDVNHVRFAWEHPLIGKLVVSWLKRFVDEDTRYTQFLCPTATGAVLLEYRATCPLG [DP026] gave purified protein yield per well of 164 µg

Lab note: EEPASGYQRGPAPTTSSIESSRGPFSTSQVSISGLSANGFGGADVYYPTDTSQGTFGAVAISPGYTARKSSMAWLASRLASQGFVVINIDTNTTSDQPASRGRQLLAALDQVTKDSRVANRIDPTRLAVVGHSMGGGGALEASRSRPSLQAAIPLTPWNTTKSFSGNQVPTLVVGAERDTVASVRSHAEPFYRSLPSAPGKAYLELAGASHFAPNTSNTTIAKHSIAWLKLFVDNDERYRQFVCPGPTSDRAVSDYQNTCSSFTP [DP053] gave purified protein yield per well of 235 µg

Lab note: VQIGPNPTKSSLEASRGPFSTSQFTVSRPSGYGAGTVYYPTNAGAKVGAIAIVPGFLSYQSSINWWGPRLASHGFVVITIDTYTTGDQPDSRSRQQLAALDQVIALGNTSSSPIYGKVDGSRTGVMGWSMGGGGSLISAKNRPSIKAAAPQAPWNTSTNFSSVTVPTLIFACQSDIVAPVISHAIPFYNSMTRNPKQYLEKTLGDHFCFNNANATVGLKGVAWMKRFVDGDTRYTSFACSNPNAFGFSDFRTARCS [ESM045] gave purified protein yield per well of 30.4 µg

Lab note: RSGPYQVAYYTQLPPVPEFGAATLYFPANKGQDFSGVVIAPGYIEQQENISWWGNHLASHGFAVLTIDTNSLQDNPQLRAEALMAGVELLRGENTRMGGTLRGKFHEQQMAVMGHSMGGGGALLAANNSGGELKAAIPLTPWLPDGDFGAVAVPTLLISGETDRIAAVADHARLHYQSLPEELTKMYLEIKGGNHFIANSIVENEGLNPNIDVRDLVGGMA [TEP023] gave purified protein yield per well of < 25 µg

----------
experiment: PET hydrolysis, aromatic products released after 48 h (umol product/mg enzyme); higher = more PET depolymerization activity; conditions: substrate: aFilm; 60 °C; pH 5.5
readout_label: PET hydrolysis

Lab note: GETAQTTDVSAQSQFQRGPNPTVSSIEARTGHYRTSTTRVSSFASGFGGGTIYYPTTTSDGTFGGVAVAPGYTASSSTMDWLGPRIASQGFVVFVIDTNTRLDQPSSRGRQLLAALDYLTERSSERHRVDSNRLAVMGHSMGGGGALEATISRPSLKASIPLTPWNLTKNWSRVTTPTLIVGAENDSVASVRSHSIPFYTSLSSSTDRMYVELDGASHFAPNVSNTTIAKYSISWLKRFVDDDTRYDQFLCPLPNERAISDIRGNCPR [DP090] gave PET hydrolysis of < 3

Lab note: ADNPYQRGPAPTNTSIEATRGTYAVSTKTISALSARGFGGGTIYYPTSTADGTFGVVAISPGYTASQSTIAWLGPRLASFGFVVVTIDTTTRYDQPTSRGSQLLAALDQAIGDSTVGPRIDATRQAVVGHSMGGGGTLEAAKTRRSLEAAVPLTGWNLDKTWPEVEAATLVIGAQNDTVAPTTSHSIPFYNSLSGAERKAYLELRGASHFAPVTSNTTIAKHTLSWLKRYVDDDTRYEQFISPGPSTAIGSPVSDYRVN [DP022] gave PET hydrolysis of < 3

Lab note: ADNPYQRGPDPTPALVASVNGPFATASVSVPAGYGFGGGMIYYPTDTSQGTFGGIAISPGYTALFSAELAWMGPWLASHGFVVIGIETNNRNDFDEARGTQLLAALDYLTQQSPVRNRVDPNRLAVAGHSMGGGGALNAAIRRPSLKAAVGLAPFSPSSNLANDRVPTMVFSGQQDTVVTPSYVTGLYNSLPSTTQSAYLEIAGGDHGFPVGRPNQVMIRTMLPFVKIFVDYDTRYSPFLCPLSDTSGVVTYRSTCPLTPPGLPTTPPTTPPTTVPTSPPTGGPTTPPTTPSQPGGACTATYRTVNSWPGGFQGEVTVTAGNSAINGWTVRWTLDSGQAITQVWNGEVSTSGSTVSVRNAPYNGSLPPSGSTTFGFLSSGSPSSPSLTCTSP [DP059] gave PET hydrolysis of 2

Lab note: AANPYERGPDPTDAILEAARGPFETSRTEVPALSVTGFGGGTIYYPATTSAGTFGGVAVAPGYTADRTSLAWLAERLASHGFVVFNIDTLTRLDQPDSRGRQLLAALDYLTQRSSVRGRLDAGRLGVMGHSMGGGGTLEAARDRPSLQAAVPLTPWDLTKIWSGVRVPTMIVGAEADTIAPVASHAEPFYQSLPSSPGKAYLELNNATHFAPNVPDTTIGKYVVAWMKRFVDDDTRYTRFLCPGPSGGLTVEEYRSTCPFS [TEP194] gave PET hydrolysis of < 3

Lab note: ADNPYQRGPDPTPASVGASRGTFATAQVSVPAGNGFGGGVIYYPTDTSQGRFGAVAVVPGYTATWAAEGAWMGPWLASFGFVVIGIDTNSRNDWDTARGTQLLAALDYLTQRSSVRDRVDASRAAVMGHSMGGGGAIYAALQRPSLKTTVGLAPFSASQTLNNMRVPTMLLAGQNDGTTTPASIRNYYGQVPSGVEKAYLELTGAGHGFPTSNNPTMMRNVIPWLKIFVDSDTRYTQFLCPLSNTNGIRSYESTCPLVPSPVPTDPPTSAPPTSTPPTTPPPTTPPPTTPAPGGPCAASYRTVNSWSGGFQGEVTVRAGGAPINGWTVRWTLGGGQSISQVWNGTLSTSGSTATVRNAPYNGSLPASGSTTFGFIANGSPSAPTLTCASP [TEP013] gave PET hydrolysis of < 3

Lab note: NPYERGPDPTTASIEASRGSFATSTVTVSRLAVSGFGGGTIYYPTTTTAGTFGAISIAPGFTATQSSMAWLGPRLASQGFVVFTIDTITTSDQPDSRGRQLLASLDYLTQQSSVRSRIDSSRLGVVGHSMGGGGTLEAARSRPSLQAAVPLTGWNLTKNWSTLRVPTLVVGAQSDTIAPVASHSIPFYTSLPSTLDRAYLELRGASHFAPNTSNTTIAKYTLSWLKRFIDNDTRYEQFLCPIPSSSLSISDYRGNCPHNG [ESM167] gave PET hydrolysis of < 3

Lab note: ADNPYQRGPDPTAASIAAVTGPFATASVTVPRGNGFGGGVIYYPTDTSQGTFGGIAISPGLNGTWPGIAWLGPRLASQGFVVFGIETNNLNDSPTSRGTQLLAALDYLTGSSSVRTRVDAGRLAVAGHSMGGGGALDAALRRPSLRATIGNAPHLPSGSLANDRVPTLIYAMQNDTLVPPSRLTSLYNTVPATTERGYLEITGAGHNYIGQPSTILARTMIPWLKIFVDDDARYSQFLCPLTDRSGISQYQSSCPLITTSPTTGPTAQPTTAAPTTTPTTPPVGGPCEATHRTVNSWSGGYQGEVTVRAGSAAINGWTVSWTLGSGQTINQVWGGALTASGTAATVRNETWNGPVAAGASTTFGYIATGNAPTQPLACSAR [ESM060] gave PET hydrolysis of < 3

Lab note: ATTSFQRGPAPTTASIQATSGPFATSQTTVSRISVTGFGGGDIYYPTSTSSGTFGAVAIAPGYTALRSSMAWLAPRIASQGFVVFNIDTLTTSDQPATRGTELLAALDYLTTRSTVRTRIDTTRLAVMGHSMGGGGTLEAAKSRPSLQAAIPLTPWDLNKSFAGLAVPTLIIGAQADTVAPVSQHAKPFFTSLPSGLDKAYLELAGASHFAPNTSNTTIASISIAWLKRFVDDDTRYDQFLCPGPTVGTAVSQFTTNCPHIS [ESM156] gave PET hydrolysis of < 3

Lab note: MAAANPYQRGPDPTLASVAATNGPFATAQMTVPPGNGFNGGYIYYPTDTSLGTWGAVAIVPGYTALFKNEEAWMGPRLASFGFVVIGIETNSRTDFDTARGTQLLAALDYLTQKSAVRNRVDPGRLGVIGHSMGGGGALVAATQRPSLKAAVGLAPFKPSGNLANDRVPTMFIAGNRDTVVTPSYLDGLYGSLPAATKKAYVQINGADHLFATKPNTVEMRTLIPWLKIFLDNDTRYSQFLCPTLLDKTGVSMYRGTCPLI [TEP109] gave PET hydrolysis of 2

----------
assay: PET hydrolysis, aromatic products released after 48 h (umol product/mg enzyme); higher = more PET depolymerization activity; conditions: substrate: cryPow; 40 °C; pH 6.5
Quick reference: PET hydrolysis of the listed items.
Respond numerically, and do not add a unit to the figure.

Example sequences with recorded PET hydrolysis:
| biosequence | PET hydrolysis |
| --- | --- |
| VQIGPAPTKASLEASRGPFTVATTRLSANGHGGGTIYYPTNAGAKVGVIAIVPGYLSYQSSIEWWGPRLASHGFAVVTIDTLTIYDQPSSRSSQQLRALDQVVALGSKSTSPLYNKVDGSRTGVMGWSMGGGGSLISAQNRPSIKAAAPQAPWNTTSNFSSLTVPTLIFACQADVVAPILSHAVPFYNSMSRNPKQYLERTAGDHFCFNNANPTVGLKGVAWMKRFIDGDTRYTSFACSNPNALGFSSFRTERCS [ESM053] | 10 |
| DQIGQAPTASNITGDGSFAVTSSAVSGQTGFGGGTVYYPTQTGTYPVVAIMPGFLELWDAIKWMGPRLASWGYVVVGVNPNSVFDLPDSRGSQLLAALNWAVGSAPSAVQSRADGTRRGVVGYSMGGGGTLEALSRDTSGKVLAGVAFSPWDTNQNWSTVRQPEFIVGAQNDTVAPPAQHAIPFYNSLAGPKTYVELAGADHLWPTSDNPTGSRAMVSWLKRWLNSDSRFTPFTCGFTGSAISASMSNAC [ESM047] | 47 |
| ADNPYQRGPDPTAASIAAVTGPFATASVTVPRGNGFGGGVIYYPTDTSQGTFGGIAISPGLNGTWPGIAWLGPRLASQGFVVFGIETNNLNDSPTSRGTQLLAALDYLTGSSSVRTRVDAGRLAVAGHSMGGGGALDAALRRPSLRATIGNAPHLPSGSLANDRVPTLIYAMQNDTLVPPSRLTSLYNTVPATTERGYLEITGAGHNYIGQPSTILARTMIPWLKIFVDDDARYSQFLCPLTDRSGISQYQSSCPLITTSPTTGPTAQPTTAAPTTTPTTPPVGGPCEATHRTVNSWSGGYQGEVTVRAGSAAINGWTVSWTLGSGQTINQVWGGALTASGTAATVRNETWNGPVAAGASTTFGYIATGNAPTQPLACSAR [ESM060] | 24.5 |
| MLTITVATGSASAADNPYQRGPDPTRTSVTAVNGPFANTSVSVPTGYGFNGGRIYYPTDTSQGTFGAIAISPGYTALFSAELAWMGPWLASHGFVVIGIETNSRNDFDTARGTQLLAALDYLTQQSPVRDRVDPNRLAVAGHSMGGGGALSAATRRSSLKAVVGIAPYSPSSNLANDRVPTMIFAGQADTVVTPSYATGLYNSLPTTTESAYLEVAGADHGFMVGRSNPVMVRTMLPFVKMFIDNDARYSQFLCPLLDSSGVVTYRSTCPLLPSTPPTSTPTPTDPPTPTPTPTVPPGSASEIVGTQSSRCIDVPNASRNNGTRVQLYDCNKQTNQA [ESM121] | 11 |
| ASPYERGPNPTTAILEASSGPYSVSSVSVSSLVTGFGGGRIYYPTTTADGTFGGIAISPGFTARWSSLEWLGPRIASHGFVVIGIETNSIYDQPTSRGQQLLAALDYLVNSSSARTRVDRNRLAVAGHSMGGGGTLYAANARPSLQAAVPIAPWNTDKTWGGVQVPTMIIGGESDSVAPVATHAIPFYTSIPASSEKAYLELNNASHFFPQTVNTTMAKSMVSWLKRYVDDDTRYDPWLCPAPSGLSISDYRDTCPA [DP084] | 3 |

# input for lookup
Lab note: APDTVVGNPFARGPDPTKESIEAERGPFAVATEKVPGGKGFGGGTIHYPTDTSQGTFGAIAVAPGFTESESAIAWYGPRLASQGFVVITISTNGLWDLPASRADQLLAALRHVTDASQIKSRVDRDRLAVMGHSMGGGGSLIAARNNPALKATIPLTGWNPNTSFSDLKVPTFVVSAQNDFIAPDGSHSRPFYQSLPASLNKAYMRLAGVGHMAPVNPNVTIAKYSISWLKRFVDNDTRYSQFLCPLPTGDPKIAAYEGTCPLS [DP008] gave PET hydrolysis of 20
